Just for reference, patent US7182945 is where these values come from.

# System Tested: T1, human leukocyte elastase (hLE) (human), P08246
# T1 chain: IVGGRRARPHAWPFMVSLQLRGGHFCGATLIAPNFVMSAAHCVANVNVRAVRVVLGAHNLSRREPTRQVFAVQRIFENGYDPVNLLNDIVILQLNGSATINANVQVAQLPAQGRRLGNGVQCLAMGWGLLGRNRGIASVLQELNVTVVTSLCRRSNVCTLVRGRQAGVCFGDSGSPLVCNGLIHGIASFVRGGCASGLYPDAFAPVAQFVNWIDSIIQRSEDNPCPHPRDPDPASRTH
# Protocol Conditions: modification not given
Quantity: Ki (nM)
# number only, unit nM dropped from output

The recorded Ki for EILIFWSVDI [peptide 26] is 2000
